biological target: Hck (Homo sapiens, UniProt P08631)
Sequence (P08631 whole entry, species assumed): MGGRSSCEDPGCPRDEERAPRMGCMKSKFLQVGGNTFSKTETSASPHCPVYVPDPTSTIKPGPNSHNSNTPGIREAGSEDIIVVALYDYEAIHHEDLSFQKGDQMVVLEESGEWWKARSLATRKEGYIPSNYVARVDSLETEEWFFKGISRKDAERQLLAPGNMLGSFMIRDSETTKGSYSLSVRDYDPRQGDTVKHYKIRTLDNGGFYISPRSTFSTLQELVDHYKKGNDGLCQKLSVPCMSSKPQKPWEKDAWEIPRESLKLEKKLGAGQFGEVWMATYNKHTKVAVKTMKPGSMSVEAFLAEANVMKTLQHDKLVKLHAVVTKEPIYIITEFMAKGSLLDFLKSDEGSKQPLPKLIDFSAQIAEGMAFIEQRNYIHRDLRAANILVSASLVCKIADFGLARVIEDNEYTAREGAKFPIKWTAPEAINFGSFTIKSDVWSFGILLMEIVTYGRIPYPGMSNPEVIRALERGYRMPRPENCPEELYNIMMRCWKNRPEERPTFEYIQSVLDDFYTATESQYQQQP
pIC50: −log10 of the molar value.
OBSERVABLE: pIC50

{"SMILES_INPUT": "Cc1cc(-c2cc(O)ccc2Cl)cc2nnc(Nc3ccc(OCCN4CCCC4)cc3)nc12", "READOUT_VALUE": 8.22}

* * *

experiment: Ocular tissue levels after i.p. dosing in mice; assay type: in vivo, C57BL/6 mice; conditions: C57BL/6, mouse, retina, ip, 5 mg/kg

{"SMILES_INPUT": "Cc1cc(-c2cc(O)ccc2Cl)cc2nnc(Nc3ccc(OCCN4CCCC4)cc3)nc12", "concentration at 5 h / µM": 0.818}

* * *

molecular target: UniProt:P06239
Sequence (P06239 whole entry, species assumed): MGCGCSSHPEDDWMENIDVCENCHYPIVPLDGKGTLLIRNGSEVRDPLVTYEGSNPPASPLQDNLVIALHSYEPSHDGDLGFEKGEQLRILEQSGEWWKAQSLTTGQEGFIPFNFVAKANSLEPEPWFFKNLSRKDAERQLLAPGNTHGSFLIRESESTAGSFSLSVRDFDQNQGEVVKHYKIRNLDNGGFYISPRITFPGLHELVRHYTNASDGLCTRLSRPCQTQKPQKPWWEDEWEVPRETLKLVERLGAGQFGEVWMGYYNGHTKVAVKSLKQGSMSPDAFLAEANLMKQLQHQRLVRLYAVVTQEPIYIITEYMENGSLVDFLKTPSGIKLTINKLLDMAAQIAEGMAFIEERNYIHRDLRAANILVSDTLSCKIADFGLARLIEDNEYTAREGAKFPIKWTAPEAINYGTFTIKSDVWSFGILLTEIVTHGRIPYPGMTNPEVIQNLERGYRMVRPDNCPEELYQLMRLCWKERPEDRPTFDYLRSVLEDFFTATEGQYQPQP

{"COMPOUND": "Cc1cc(-c2cc(O)ccc2Cl)cc2nnc(Nc3ccc(OCCN4CCCC4)cc3)nc12 [TG100572]", "IC50 (nM)": 0.1}

* * *

target: Fgr (Homo sapiens, UniProt P09769); experiment: Kinase inhibition assay; assay type: biochemical
Sequence (P09769 whole entry, species assumed): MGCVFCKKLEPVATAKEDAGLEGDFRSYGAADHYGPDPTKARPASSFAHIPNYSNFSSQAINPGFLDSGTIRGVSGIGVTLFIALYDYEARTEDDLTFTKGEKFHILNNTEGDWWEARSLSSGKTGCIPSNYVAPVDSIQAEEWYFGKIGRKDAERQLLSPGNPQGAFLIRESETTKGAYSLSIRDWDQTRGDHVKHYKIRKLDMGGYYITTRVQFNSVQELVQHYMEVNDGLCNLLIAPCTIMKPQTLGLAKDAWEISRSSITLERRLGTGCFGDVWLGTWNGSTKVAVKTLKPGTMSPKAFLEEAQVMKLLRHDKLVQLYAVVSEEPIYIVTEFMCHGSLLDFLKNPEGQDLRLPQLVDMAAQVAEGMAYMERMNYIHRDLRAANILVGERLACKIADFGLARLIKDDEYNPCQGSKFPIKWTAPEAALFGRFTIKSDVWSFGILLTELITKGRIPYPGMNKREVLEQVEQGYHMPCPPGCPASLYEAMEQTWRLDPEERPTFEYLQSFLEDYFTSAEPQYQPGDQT
OBSERVABLE: IC50

{"MOLECULE": "Cc1cc(-c2cc(O)ccc2Cl)cc2nnc(Nc3ccc(OCCN4CCCC4)cc3)nc12 [TG100572]", "TEST_TARGET": "Fgr (Homo sapiens, UniProt P09769)", "OBSERVABLE": "IC50", "READOUT_VALUE": "5 nM"}

* * *

molecular target: FGFR1 (Homo sapiens, UniProt P11362)
OBSERVABLE: IC50 (nM)

{"SMILES_INPUT": "Cc1cc(-c2cc(O)ccc2Cl)cc2nnc(Nc3ccc(OCCN4CCCC4)cc3)nc12", "READOUT_VALUE": 2}

* * *

biological target: Src (Homo sapiens)
Sequence (P12931 whole entry, species assumed): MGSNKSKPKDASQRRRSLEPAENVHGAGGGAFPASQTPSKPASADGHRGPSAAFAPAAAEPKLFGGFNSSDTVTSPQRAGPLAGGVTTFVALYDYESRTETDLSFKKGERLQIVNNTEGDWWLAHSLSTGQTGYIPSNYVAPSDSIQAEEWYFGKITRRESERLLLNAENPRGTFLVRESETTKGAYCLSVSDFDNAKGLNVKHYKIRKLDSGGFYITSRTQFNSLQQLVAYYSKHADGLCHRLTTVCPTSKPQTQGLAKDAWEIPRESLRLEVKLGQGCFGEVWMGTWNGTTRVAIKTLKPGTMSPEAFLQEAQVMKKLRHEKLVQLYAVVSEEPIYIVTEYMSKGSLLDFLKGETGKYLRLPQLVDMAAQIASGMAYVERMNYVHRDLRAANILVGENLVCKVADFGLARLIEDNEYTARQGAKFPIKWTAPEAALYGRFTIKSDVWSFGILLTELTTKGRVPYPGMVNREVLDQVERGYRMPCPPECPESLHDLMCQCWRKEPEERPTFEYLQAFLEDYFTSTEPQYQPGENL
pIC50: −log10 of the molar value.
OBSERVABLE: pIC50

{"COMPOUND": "Cc1cc(-c2cc(O)ccc2Cl)cc2nnc(Nc3ccc(OCCN4CCCC4)cc3)nc12 [TG100572]", "TEST_TARGET": "Src (Homo sapiens)", "OBSERVABLE": "pIC50", "READOUT_VALUE": 9.00}

* * *

assay: Pharmacokinetics after topical dosing in mice; type: in vivo, C57BL/6 mice; conditions: C57BL/6, mouse, posterior eyecup (sclera/choroid/retina), topical or ocular, 1 %
OBSERVABLE: AUC(0-t) (µM·h)

{"SMILES_INPUT": "Cc1cc(-c2cc(O)ccc2Cl)cc2nnc(Nc3ccc(OCCN4CCCC4)cc3)nc12", "READOUT_VALUE": 6.8}

* * *

target: PDGFRβ (Homo sapiens, UniProt P09619)
Sequence (P09619 33-1106, species assumed): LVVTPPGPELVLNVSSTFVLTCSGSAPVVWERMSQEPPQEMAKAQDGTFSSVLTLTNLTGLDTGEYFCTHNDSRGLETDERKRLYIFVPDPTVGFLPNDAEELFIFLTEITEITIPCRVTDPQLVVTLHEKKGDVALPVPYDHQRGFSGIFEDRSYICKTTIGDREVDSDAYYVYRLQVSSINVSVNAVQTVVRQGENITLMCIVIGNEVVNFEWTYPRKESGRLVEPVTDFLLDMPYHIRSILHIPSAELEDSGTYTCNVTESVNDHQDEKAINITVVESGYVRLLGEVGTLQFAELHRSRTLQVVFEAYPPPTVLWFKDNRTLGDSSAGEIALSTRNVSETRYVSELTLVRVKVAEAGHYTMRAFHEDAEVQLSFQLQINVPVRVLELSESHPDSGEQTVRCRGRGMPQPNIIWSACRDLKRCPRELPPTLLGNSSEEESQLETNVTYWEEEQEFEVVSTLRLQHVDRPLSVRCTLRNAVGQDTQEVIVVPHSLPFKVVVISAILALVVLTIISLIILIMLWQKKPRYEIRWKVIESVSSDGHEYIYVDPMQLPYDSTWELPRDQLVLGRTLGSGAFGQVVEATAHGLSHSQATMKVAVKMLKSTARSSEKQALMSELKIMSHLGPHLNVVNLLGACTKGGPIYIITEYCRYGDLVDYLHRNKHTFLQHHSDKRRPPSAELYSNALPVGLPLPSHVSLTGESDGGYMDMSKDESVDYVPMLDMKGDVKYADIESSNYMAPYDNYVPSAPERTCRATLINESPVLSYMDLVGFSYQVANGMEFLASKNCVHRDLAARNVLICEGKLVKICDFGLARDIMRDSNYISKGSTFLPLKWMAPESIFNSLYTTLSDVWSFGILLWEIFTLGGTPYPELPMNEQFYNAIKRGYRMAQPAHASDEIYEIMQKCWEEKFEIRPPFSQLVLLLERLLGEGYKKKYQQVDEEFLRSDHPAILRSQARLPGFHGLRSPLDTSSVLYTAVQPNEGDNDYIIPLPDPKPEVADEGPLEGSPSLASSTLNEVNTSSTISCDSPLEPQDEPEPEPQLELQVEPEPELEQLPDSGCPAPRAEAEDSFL

{"MOLECULE": "Cc1cc(-c2cc(O)ccc2Cl)cc2nnc(Nc3ccc(OCCN4CCCC4)cc3)nc12 [TG100572]", "RESULT_UNITS": "nM", "IC50": 13}

* * *

molecular target: VEGFR2 (Homo sapiens)
Sequence (P35968 20-1356, species assumed): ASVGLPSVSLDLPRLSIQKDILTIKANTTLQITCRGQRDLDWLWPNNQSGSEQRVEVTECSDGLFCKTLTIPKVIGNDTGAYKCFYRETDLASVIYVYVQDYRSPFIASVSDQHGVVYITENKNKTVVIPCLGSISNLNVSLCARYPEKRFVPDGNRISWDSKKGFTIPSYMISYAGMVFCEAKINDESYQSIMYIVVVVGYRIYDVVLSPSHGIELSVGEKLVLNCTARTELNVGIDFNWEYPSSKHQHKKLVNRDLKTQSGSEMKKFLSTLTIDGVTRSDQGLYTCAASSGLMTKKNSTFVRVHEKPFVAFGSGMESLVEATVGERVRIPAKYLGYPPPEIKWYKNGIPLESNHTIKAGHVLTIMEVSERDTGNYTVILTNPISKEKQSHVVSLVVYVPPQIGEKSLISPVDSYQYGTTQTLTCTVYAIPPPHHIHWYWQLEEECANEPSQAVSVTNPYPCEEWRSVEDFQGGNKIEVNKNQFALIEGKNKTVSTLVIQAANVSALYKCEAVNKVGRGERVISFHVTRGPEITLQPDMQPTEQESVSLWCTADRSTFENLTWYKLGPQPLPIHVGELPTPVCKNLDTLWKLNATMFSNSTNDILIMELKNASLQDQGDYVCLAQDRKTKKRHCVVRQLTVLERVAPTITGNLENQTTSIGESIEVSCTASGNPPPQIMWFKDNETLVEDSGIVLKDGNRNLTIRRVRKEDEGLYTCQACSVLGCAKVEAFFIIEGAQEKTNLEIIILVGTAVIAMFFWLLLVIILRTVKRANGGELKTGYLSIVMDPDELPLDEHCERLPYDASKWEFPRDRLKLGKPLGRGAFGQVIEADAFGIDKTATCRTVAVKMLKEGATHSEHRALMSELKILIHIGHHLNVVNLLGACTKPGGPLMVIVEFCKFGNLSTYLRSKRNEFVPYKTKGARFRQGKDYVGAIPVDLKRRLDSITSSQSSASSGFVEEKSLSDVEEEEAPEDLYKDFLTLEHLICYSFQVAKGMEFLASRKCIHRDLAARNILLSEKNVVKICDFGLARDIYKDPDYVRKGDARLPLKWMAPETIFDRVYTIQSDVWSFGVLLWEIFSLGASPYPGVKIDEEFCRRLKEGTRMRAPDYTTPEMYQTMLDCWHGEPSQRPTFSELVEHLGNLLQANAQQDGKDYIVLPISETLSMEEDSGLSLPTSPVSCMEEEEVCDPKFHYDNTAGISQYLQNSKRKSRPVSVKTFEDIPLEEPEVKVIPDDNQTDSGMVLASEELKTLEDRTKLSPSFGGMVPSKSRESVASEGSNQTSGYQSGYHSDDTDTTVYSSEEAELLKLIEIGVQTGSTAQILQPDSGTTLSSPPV
pIC50: −log10 of the molar value.

{"MOLECULE": "Cc1cc(-c2cc(O)ccc2Cl)cc2nnc(Nc3ccc(OCCN4CCCC4)cc3)nc12 [TG100572]", "TEST_TARGET": "VEGFR2 (Homo sapiens)", "pIC50": 8.15}

* * *

target: Fyn (Homo sapiens)
Sequence (P06241 whole entry, species assumed): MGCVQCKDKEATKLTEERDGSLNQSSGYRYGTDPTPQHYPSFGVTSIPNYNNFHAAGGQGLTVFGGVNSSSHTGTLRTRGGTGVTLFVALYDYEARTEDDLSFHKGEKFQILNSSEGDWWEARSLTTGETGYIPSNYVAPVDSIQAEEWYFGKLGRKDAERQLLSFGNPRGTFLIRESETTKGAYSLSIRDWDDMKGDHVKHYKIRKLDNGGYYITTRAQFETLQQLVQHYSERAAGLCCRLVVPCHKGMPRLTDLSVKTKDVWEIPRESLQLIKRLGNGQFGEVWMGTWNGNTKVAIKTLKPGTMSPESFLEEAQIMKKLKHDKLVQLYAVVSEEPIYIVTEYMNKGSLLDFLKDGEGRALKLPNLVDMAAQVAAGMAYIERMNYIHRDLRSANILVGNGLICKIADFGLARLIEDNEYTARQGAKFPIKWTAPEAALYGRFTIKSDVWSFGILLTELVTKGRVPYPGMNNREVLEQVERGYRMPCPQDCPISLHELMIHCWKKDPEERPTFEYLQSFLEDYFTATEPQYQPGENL
OBSERVABLE: IC50 (nM)

{"COMPOUND": "Cc1cc(-c2cc(O)ccc2Cl)cc2nnc(Nc3ccc(OCCN4CCCC4)cc3)nc12 [TG100572]", "TEST_TARGET": "Fyn (Homo sapiens)", "OBSERVABLE": "IC50", "RESULT_UNITS": "nM", "READOUT_VALUE": 0.5}
